Please go through the items and note down their CD28 MFI at 33.3 nM.
- measured_target: CD28 (Homo sapiens, UniProt P10747)
- assay_comment: Flow binding to Jurkat/IL2 reporter cells (CD28)
- Design: host or cells: Jurkat cells expressing an IL-2-luciferase reporter
- measurement_setup: Table E19; Jurkats (CD28); 33.3 nM
Write no unit; give the number alone.

-- ask Given the entry E35D/D46V/M47V/V68M/K89N (protein) VIHVTKEVKEVATLSCGHNVSVEELAQTRIYWQKDKKMVLTMMSGVVNIWPEYKNRTIFDITNNLSIMILALRPSDEGTYECVVLKYENDAFKREHLAEVTLSVKAD , report its measured CD28 MFI at 33.3 nM.
-- reply 2119

-- ask Please report the recorded CD28 MFI at 33.3 nM for M47V/N48K/K89N (protein) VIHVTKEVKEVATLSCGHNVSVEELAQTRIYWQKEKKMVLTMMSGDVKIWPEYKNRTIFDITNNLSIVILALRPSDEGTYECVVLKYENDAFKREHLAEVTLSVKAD .
-- reply 366

-- ask Need CD28 MFI at 33.3 nM, item N48K/V68M (protein) VIHVTKEVKEVATLSCGHNVSVEELAQTRIYWQKEKKMVLTMMSGDMKIWPEYKNRTIFDITNNLSIMILALRPSDEGTYECVVLKYEKDAFKREHLAEVTLSVKAD
-- reply 118

-- ask Could you share which CD28 MFI at 33.3 nM value was measured for N48K (protein) VIHVTKEVKEVATLSCGHNVSVEELAQTRIYWQKEKKMVLTMMSGDMKIWPEYKNRTIFDITNNLSIVILALRPSDEGTYECVVLKYEKDAFKREHLAEVTLSVKAD ?
-- reply 60.1

-- ask Find the recorded CD28 MFI at 33.3 nM belonging to D46V/V68M (protein) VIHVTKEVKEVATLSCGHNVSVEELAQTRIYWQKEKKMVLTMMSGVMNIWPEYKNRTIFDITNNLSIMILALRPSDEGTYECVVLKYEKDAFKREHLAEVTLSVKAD and report it.
-- reply 556

-- ask # input molecule: E35D/N48K/K89N (protein) VIHVTKEVKEVATLSCGHNVSVEELAQTRIYWQKDKKMVLTMMSGDMKIWPEYKNRTIFDITNNLSIVILALRPSDEGTYECVVLKYENDAFKREHLAEVTLSVKAD ; wanted: its CD28 MFI at 33.3 nM
-- reply 411

-- ask // query CD28 MFI at 33.3 nM value for entry M47L/V68M/L85Q (protein) VIHVTKEVKEVATLSCGHNVSVEELAQTRIYWQKEKKMVLTMMSGDLNIWPEYKNRTIFDITNNLSIMILALRPSDEGTYECVVQKYEKDAFKREHLAEVTLSVKAD
-- reply 60.9

-- ask Recorded CD28 MFI at 33.3 nM of E35D/D46V/M47L/V68M/L85Q (protein) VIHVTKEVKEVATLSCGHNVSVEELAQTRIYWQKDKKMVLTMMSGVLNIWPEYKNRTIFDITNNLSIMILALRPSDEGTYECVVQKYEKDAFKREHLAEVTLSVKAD , please.
-- reply 464
